Source listed as patent US10167299B2.

Assay: in vivo
Conditions: male, rat, iv, 10 mg/kg
Exercise: for every item that follows, state its recorded AUC(0-t).
Give bare numbers, in ng·h/mL.

Cc1nnc(C(C)C)n1C1CC2CCC(C1)N2CC[C@H](NC(=O)C1CCCCC1)c1cccs1 (stereo partly shown)    5110
Cc1nnc(C(C)C)n1C1CC2CCC(C1)N2CC[C@H](NC(=O)C1CCC(F)(F)CC1)c1ccsc1 (stereo partly shown)    4150
Cc1nnc(C(C)C)n1C1CC2CCC(C1)N2CC[C@H](NC(=O)C1CCC(F)(F)CC1)c1cccs1 (stereo partly shown)    7050

Any idea what AUC(0-t) was measured for Cc1nnc(C(C)C)n1C1CC2CCC(C1)N2CC[C@H](NC(=O)C1CCCC1)c1cccs1 (stereo partly shown) ?
1550

====

Test: in vivo
Settings: male, rat, po, 20 mg/kg
For each of the compounds below, state its half-life.
One number for each entry, in h.

Cc1nnc(C(C)C)n1C1CC2CCC(C1)N2CC[C@H](NC(=O)C1CCC(F)(F)CC1)c1cccs1 (stereo partly drawn)    2.12
Cc1nnc(C(C)C)n1C1CC2CCC(C1)N2CC[C@H](NC(=O)C1CCCC1)c1cccs1 (stereo partly drawn)    2.05
Cc1ccc([C@H](CCN2C3CCC2CC(n2c(C)nnc2C(C)C)C3)NC(=O)C2CCC(F)(F)CC2)s1 (stereo partly drawn)    32.8
Cc1nnc(C(C)C)n1C1CCN(CC[C@H](NC(=O)C2CCCC2)c2cccs2)CC1    1.78
Cc1nnc(C(C)C)n1C1CC2CCC(C1)N2CC[C@H](NC(=O)C1CCC(F)(F)CC1)c1ccsc1 (stereo partly drawn)    1.55

Please give the measured half-life for this compound: Cc1nnc(C(C)C)n1C1CC2CCC(C1)N2CC[C@H](NC(=O)C1CCCCC1)c1cccs1 (stereo partly drawn)
1.16

====

Experiment: Pharmacokinetic experiment on Beagles
Conditions: male, beagle, dog, plasma, po, 15 mg/kg
READOUT TYPE: Cmax (µg/mL)
One number for each entry, in µg/mL.

Any idea what Cmax was measured for Cc1nnc(C(C)C)n1C1CC2CCC(C1)N2CC[C@H](NC(=O)C1CCC(F)(F)CC1)c1ccsc1 (stereo partly shown) ?
4.61

====

Experiment: in vivo
Conditions: male, rat, 10 mg/kg
READOUT TYPE: half-life (h)
Give bare numbers, in h.

Param item = Cc1ccc([C@H](CCN2C3CCC2CC(n2c(C)nnc2C(C)C)C3)NC(=O)C2CCC(F)(F)CC2)s1 (stereo partly shown) ; retrieve measured half-life.
1.6

====

Assay: Pharmacokinetic experiment of rats
Conditions: male, rat, plasma, po, 20 mg/kg
READOUT TYPE: MRT (h)
Answers are plain numbers, in h.

Consider the compound shown here: Cc1nnc(C(C)C)n1C1CCN(CC[C@H](NC(=O)C2CCCC2)c2cccs2)CC1 [Compound 17] What is its recorded MRT?
2.31

====

Details: male, rat, in vivo, 10 mg/kg
READOUT TYPE: CLz (mL/min/kg)
Numbers only, in mL/min/kg.

Cc1nnc(C(C)C)n1C1CC2CCC(C1)N2CC[C@H](NC(=O)C1CCCC1)c1cccs1 (stereo partly shown)    104
Cc1nnc(C(C)C)n1C1CC2CCC(C1)N2CC[C@H](NC(=O)C1CCC(F)(F)CC1)c1ccsc1 (stereo partly shown)    40
Cc1nnc(C(C)C)n1C1CC2CCC(C1)N2CC[C@H](NC(=O)C1CCC(F)(F)CC1)c1cccs1 (stereo partly shown)    23.7

Which CLz is reported for this compound? Cc1nnc(C(C)C)n1C1CC2CCC(C1)N2CC[C@H](NC(=O)C1CCCCC1)c1cccs1 (stereo partly shown)
32.7

====

Test: in vivo
Settings: male, rat, po, 20 mg/kg
Hi there, I'd appreciate the recorded MRT for every entry that follows.
Give bare numbers, in h.

Would you please look over these solved cases?
Cc1nnc(C(C)C)n1C1CC2CCC(C1)N2CC[C@H](NC(=O)C1CCC(F)(F)CC1)c1cccs1 (some centres unmarked)    3.33
Cc1nnc(C(C)C)n1C1CC2CCC(C1)N2CC[C@H](NC(=O)C1CCCCC1)c1cccs1 (some centres unmarked)    2.11

Look at each compound and report its MRT.
1. Cc1nnc(C(C)C)n1C1CC2CCC(C1)N2CC[C@H](NC(=O)C1CCCC1)c1cccs1 (some centres unmarked)
2. Cc1ccc([C@H](CCN2C3CCC2CC(n2c(C)nnc2C(C)C)C3)NC(=O)C2CCC(F)(F)CC2)s1 (some centres unmarked)
3. Cc1nnc(C(C)C)n1C1CC2CCC(C1)N2CC[C@H](NC(=O)C1CCC(F)(F)CC1)c1ccsc1 (some centres unmarked)

1: 2.94; 2: 4.79; 3: 2.55

====

System: HIV-1Ba-L virus strain
Test: Inhibition of viral replication in HOS-CD4-CCR5 cells infected with HIV-1Ba-L
Format: cell-based
Details: Human immunodeficiency virus 1, HOS-CD4-CCR5
# strict inequality: EC50 < 0.02 µg/mL yields y, everything else yields n

Cc1nnc(C(C)C)n1C1CC2CCC(C1)N2CC[C@H](NC(=O)C1CCC(F)(F)CC1)c1ccsc1 (some centres unmarked) [Compound 22]    y
Cc1nnc(C(C)C)n1C1CC2CCC(C1)N2CC[C@H](NC(=O)C1CCCC1)c1cccs1 (some centres unmarked) [Compound 18]    y

Take the molecule Cc1ccc([C@H](CCN2C3CCC2CC(n2c(C)nnc2C(C)C)C3)NC(=O)C2CCC(F)(F)CC2)s1 (some centres unmarked) [Compound 29] and say whether its EC50 is less than 0.02 µg/mL.
n

Input Cc1nnc(C(C)C)n1C1CC2CCC(C1)N2CCC(NC(=O)C1CCC(F)(F)CC1)c1cccs1 (centres unmarked) [Compound 3]
y

And the next one, Cc1nnc(C(C)C)n1C1CC2CCC(C1)N2CC[C@H](NC(=O)C1CCCCC1)c1cccs1 (some centres unmarked) [Compound 16] ?
y

====

Assay: Pharmacokinetic experiment of rats
Details: male, rat, plasma, iv, 10 mg/kg
READOUT TYPE: MRT (h)
One number for each entry, in h.

Which MRT value is on record for `Cc1nnc(C(C)C)n1C1CCN(CC[C@H](NC(=O)C2CCCC2)c2cccs2)CC1` ?
1.42

====

Assay: in vivo
Conditions: male, rat, 10 mg/kg
READOUT TYPE: Tmax (min)
One number for each entry, in min.

// lookup Tmax for Cc1ccc([C@H](CCN2C3CCC2CC(n2c(C)nnc2C(C)C)C3)NC(=O)C2CCC(F)(F)CC2)s1 (stereo partly shown) [Compound 29]
15

====

Could you please report measured IC50 for the items listed next?
Biological target: CCR5 (Homo sapiens (Human), UniProt P51681)
Sequence (P51681 whole entry): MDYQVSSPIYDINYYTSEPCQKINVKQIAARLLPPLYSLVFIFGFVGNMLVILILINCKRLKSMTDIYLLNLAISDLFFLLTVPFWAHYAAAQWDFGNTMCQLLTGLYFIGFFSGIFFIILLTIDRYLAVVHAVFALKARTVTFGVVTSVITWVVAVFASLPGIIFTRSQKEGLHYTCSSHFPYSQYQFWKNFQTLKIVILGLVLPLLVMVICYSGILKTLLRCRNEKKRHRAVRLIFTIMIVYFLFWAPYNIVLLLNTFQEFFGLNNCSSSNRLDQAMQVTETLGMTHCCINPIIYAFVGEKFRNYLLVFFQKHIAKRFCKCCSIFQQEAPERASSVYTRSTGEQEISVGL
Test: Calcium flux inhibition experiment
Assay type: cell-based
Reply with a number, then the unit it belongs to.

COC(=O)c1ccc([C@H](CCN2C3CCC2CC(n2c(C)nnc2C(C)C)C3)NC(=O)C2CCC(F)(F)CC2)s1 (some centres unmarked) [Compound 73]    8.23 nM

Consider the following items and state reported IC50 for each.
1. Cc1nnc(C(C)C)n1C1CC2CCC(C1)N2CC[C@H](NC(=O)Cc1nnn[nH]1)c1ccc(C#N)s1 (some centres unmarked) [Compound 161]
2. Cc1nnc(C(C)C)n1C1CC2CCC(C1)N2CC[C@H](NC(=O)C1CCN(S(C)(=O)=O)CC1)c1ccc(C#N)s1 (some centres unmarked) [Compound 149]
3. COc1ccc([C@H](CCN2C3CCC2CC(n2c(C)nnc2C(C)C)C3)NC(=O)CC#N)s1 (some centres unmarked) [Compound 166]
4. Cc1nnc(C(C)C)n1C1CC2CCC(C1)N2CC[C@H](NC(=O)Cn1ncnn1)c1ccc(C#N)s1 (some centres unmarked) [Compound 155]
5. Cc1nnc(C(C)C)n1C1CC2CCC(C1)N2CC[C@H](NC(=O)CC#N)c1ccc(C#N)s1 (some centres unmarked) [Compound 167]
6. COc1ccc([C@H](CCN2C3CCC2CC(n2c(C)nnc2C(C)C)C3)NC(=O)Cc2nnn[nH]2)s1 (some centres unmarked) [Compound 160]
7. COc1ccc([C@H](CCN2C3CCC2CC(n2c(C)nnc2C(C)C)C3)NC(=O)Cn2ncnn2)s1 (some centres unmarked) [Compound 154]

1: 8.36 nM; 2: 7.89 nM; 3: 6.54 nM; 4: 8.23 nM; 5: 7.98 nM; 6: 1.34 nM; 7: 23.1 nM

====

Assay: in vivo
Conditions: male, rat
# if value of bioavailability reaches 10%, tag yes (1); if it stays below, tag no (0)

Some solved cases for reference:
Cc1nnc(C(C)C)n1C1CC2CCC(C1)N2CC[C@H](NC(=O)C1CCC(F)(F)CC1)c1ccsc1 (some centres unmarked)    yes (1)
Cc1nnc(C(C)C)n1C1CC2CCC(C1)N2CC[C@H](NC(=O)C1CCCC1)c1cccs1 (some centres unmarked)    yes (1)
Cc1nnc(C(C)C)n1C1CC2CCC(C1)N2CC[C@H](NC(=O)C1CCCCC1)c1cccs1 (some centres unmarked)    yes (1)
Cc1nnc(C(C)C)n1C1CC2CCC(C1)N2CC[C@H](NC(=O)C1CCC(F)(F)CC1)c1cccs1 (some centres unmarked)    no (0)

API: the following record is the query input.
API: above_or_equal(metric=bioavailability, cutoff=10%) for item Cc1ccc([C@H](CCN2C3CCC2CC(n2c(C)nnc2C(C)C)C3)NC(=O)C2CCC(F)(F)CC2)s1 (some centres unmarked)
yes (1)
